# Assayed Target: T1, Human IL-11 (human, UniProt P20809 22-199)
# T1 construct: Recombinant human IL-11 (GenScript Cat. No. Z03108-1) or IL-11 secreted by human cells; the mature form is said to have 178 residues; also called recombinant human IL-11; endogenously produced IL-11
# T1 sequence: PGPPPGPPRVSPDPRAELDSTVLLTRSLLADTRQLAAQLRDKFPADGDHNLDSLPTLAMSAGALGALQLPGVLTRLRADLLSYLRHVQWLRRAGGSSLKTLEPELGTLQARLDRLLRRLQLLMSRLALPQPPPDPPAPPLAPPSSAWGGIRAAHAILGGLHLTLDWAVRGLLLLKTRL
# Assay Overview: ELISA
Endpoint Name: hIL11 - average signal
Give the figure by itself; no unit, no explanation.

INSERT INTO measurements (binder, endpoint_name, reported_measurement) VALUES
  ('YU100-H02 (antibody) QVQLQQSGGGVVQPGRSLRLSCAASGFTFSSYGMHWVRQAPGKGLEWVAVISYDGSNKYYADSVKGRFTISRDNSKNTLYLQMNSLRAEDTAVYYCARIMGYDYGDYDVVDYWGQGTLVTVSSGSASAPKLEEGEFSEARVQSALTQPRSVSRSPGQSVTISCTGTSSDVGTYNYVSWYQQHPGKAPKLMIYDVSKRPSGVPDRFSGSKSGNTASLTISGLQAEDEADYYCCSYAGFYTWVFGGGTKLTVL', 'hIL11 - average signal', 0.309);

Read the next record carefully.
YU100-D02 (antibody) QVRLVQSGGGVVQPGRSLRLSCAASGFTFSSYGMHWVRQAPGKGLEWVAVISYDGSNKYYADSVKGRFTISRDNSKNTLYLQMNSLRAEDTAVYYCAKIGATDPLDYWGQGTLVTVSSGSASAPKLEEGEFSEARVQSALTQPRSVSGSPGQSVTISCTGTSGDVGTYNYVSWYQQHPGKAPKLMIFDVSKRPSGVPDRFSGSKSGNTASLTISGLQAEDEADYYCNSYAGSYTWVFGGGTKLTVLGQPKAAPSVTLFPPSS has a reported hIL11 - average signal of 0.268
